B1: RAD51 (parent)
chain: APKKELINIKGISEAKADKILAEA

variants of: B1; experiment: protein stability index of a GFP-peptide fusion (GPS, HEK-293T) (PSI 1-6); higher = more stable; details: c terminus: a fixed tail appended;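 note: lentivirally expressed fusions sorted by FACS into six bins by GFP to DsRed ratio, PSI derived from sequencing read proportions per bin multiplied by bin number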
Give measured protein stability index for each item. Keep answers brief.
// return just the number, without any unit appended

Consider the variant A1M and give its recorded protein stability index.
4.06

Given the variant D18T , write its reported protein stability index.
4.04

Provide one value: measured protein stability index of N8V
4.07
